Molecular target: T1, AMS2b E2E1-I53-50A trimer (Hepatitis C virus genotype 2b, strain …, stabilised)
T1 construct: also called AMS2b E2E1 trimer; source: HEK293F, co-transfected with furin, purified (Strep-TactinXT, SEC); copies: 3 + 3
Assay: ELISA
Conditions: both partners purified

binder: AR3C (antibody, V domains shown, also called mature AR3C; conventional AR3C; source: HEK293F, transfected, purified (protein A/G)) VH: VQLLEQSGAEVKKPGSSVKVSCETSGGTFDNYALNWVRQAPGQGLEWIGGVVPLFGTTRNAQKFQGRVTISDDKSTGTGHMELRSLRSEDTAVYYCVRSVTPRYCGGGFCYGEFDYWGQGTLVTVSS VL: EIELTQSPATLSVSPGERATLSCRASQSVSSNLAWYQQKPGQAPRLLIYGASTRATGIPARFSGSGSGTEFTLTVSRLEPEDSAVYFCQQYYRSPLTFGGGTKVEIK
binding result: binds

binder: HEPC3 (antibody, V domains shown, also called mature HEPC3; source: HEK293F, transfected, purified (protein A/G)) VH: QVQLVQSGAEVKKPGSSVKVSCKASGGTLNSYEITWVRQAPGQGLEWMGGITPIFETTYAQKFQGRVTITADESTSTTYMELSSLRPEDTAVYYCARDGVRYCGGGRCYNWFDPWGQGTLVTVSS VL: DIQMTQSPSSLSASVGDRVTITCRAGQNINNYLNWYQQKPGKAPKVLIYAASNLQSGVPSRFSGSGSGTDFTLTISSLQPEDFATYYCQQSHSTVRTFGQGTKVEIK
binding result: binds
